Tested on: K-562 leukemia
Experiment: NCI tumour cell line growth inhibition, 48 h
measure.name: TGI

Exam item: Field request: TGI | item: COC(=O)/C(=C/c1ccc(OC)cc1)c1cc(OC)c(OC)c(OC)c1
Marked response: > 58.4 µM

Exam item: Repeat for the following molecule: C=CCCC1(CCP(=O)(c2ccccc2)c2ccccc2)OCCO1
Marked response: > 100 µM

Exam item: Repeat for the following molecule: CC(=O)Oc1cc(OC(C)=O)c2c(c1C)CC[C@@H]1[C@@H]2CC[C@]2(C)[C@@H](OC(C)=O)CC[C@@H]12
Marked response: 89.2 µM

Exam item: Repeat for the following molecule: O=C(CO[N+](=O)[O-])OCC(=O)c1ccccc1
Marked response: > 100 µM

Exam item: Repeat for the following molecule: Brc1ccc2c(c1)-c1ccccc1C1=NCCN12
Marked response: 5.1 µM

Exam item: Repeat for the following molecule: CC(=O)Nc1ccc(C(=O)NN2C(=O)CSC2c2ccccc2)cc1 (stereo unspecified)
Marked response: > 100 µM

Exam item: Repeat for the following molecule: O=C(O)C12C3C4C1C1C2C3C41I (stereo unspecified)
Marked response: > 100 µM

Exam item: Repeat for the following molecule: O=C(/C=C/c1ccc(OCC(=O)N2CCN(c3ccccc3)CC2)cc1)c1ccccc1
Marked response: > 43 µM

Exam item: Repeat for the following molecule: COc1cc(-c2nn(-c3cccc(NC(=O)c4cccc(C(F)(F)F)c4)c3)cc2-c2ccncc2)ccc1Cl
Marked response: > 50 µM

Exam item: Repeat for the following molecule: Cc1[nH]n(C(=O)c2ccc(Cl)cc2)c(=O)c1/C=C1\C(O)=CC(=O)c2ccccc21
Marked response: > 100 µM

Exam item: Repeat for the following molecule: Nc1nc2c(ccc3ccccc32)[nH]1
Marked response: > 10 µM

Exam item: Repeat for the following molecule: O=C1CSC(c2cccc(Oc3ccccc3)c2)N1c1cc(Cl)ccc1Cl (stereo unspecified)
Marked response: 50.1 µM

Exam item: Repeat for the following molecule: CN1CCN(Cc2ccc(NC(=O)c3cncc(C#Cc4cnc5cccnn45)c3)cc2C(F)(F)F)CC1
Marked response: 21.6 µM

Exam item: Repeat for the following molecule: O=NNc1nc(-c2ccccn2)nc2ccccc12
Marked response: > 100 µM

Exam item: Repeat for the following molecule: Cc1cc(N(CCCl)CCCl)ccc1/C=N\NC(=O)c1cccnc1
Marked response: > 100 µM

Exam item: Repeat for the following molecule: CCOC(=O)C1(NC(=O)OC(C)(C)C)CCc2[nH]oc(=O)c2C1 (stereo unspecified)
Marked response: > 100 µM

Exam item: Repeat for the following molecule: COc1cc(CC2C(=O)OCC2Cc2ccc(OC)c(OC)c2)ccc1O (stereo unspecified)
Marked response: > 100 µM

Exam item: Repeat for the following molecule: CCOC(=O)c1sc2nc(SC)nc3c2c1NCN3c1ccccc1Cl
Marked response: > 100 µM

Exam item: Repeat for the following molecule: COc1cccc2c(Nc3ccc(C(=O)NCCN4CCNCC4)cc3)cc(-c3ccccc3)nc12
Marked response: 75.3 µM

Exam item: Repeat for the following molecule: CC(=O)OC1C(C)OC(OC2C[C@](O)(C(C)=O)Cc3c(O)c4c(c(O)c32)C(=O)c2ccccc2C4=O)C(F)C1OC(C)=O (stereo partly specified)
Marked response: > 100 µM

Exam item: Repeat for the following molecule: COc1ccc(-c2cc(=O)c3cc(OC)c(OC)cc3[nH]2)cc1OC
Marked response: > 100 µM

====

System: MDA-N
Experiment: NCI tumour cell line growth inhibition, 48 h
I would appreciate it if you labelled entries met when TGI is 40 µM or higher, otherwise not met.

Exam item: Record CO/C(N)=C(\C#N)N=Cc1cccs1 ; criterion: TGI no lower than 40 µM. Met?
Marked response: met

Exam item: Repeat for the following compound: COC(=O)C1CCC(=S)N1C(C)=O (stereo not given)
Marked response: met

Exam item: Repeat for the following compound: CC1=C(C(=O)OC(C)(C)C)C(c2ccc([N+](=O)[O-])cc2)C(C(=O)OC(C)(C)C)=C(C)N1
Marked response: met

Exam item: Repeat for the following compound: O=C1Cc2c(-c3ccccc3)cc(-c3ccc(Cl)cc3)nc2-c2ccccc2N1
Marked response: not met

Exam item: Repeat for the following compound: Cc1c(N)nc(C2CC(=O)N2CC(N)C(N)=O)nc1C(=O)NC(C(=O)NC(C)C(O)C(C)C(=O)NC(C(=O)NCCc1nc(-c2nc(C(=O)NCCNCC(C)O)cs2)cs1)C(C)O)C(OC1OC(CO)C(O)C(O)C1OC1OC(CO)C(O)C(OC(N)=O)C1O)c1cnc[nH]1 (stereo not given)
Marked response: met

Exam item: Repeat for the following compound: CCOC(=O)N/N=C(/N)Cc1ccc(Cl)cc1
Marked response: met

Exam item: Repeat for the following compound: Clc1cc2ncn(C3CCCO3)c2cc1Cl (stereo not given)
Marked response: met

Exam item: Repeat for the following compound: CCN(CC)CCCNc1nnc(C)c2[nH]c3ccccc3c12
Marked response: not met

Exam item: Repeat for the following compound: CCOC(=O)C1(NC(=O)OC(C)(C)C)CCc2[nH]oc(=O)c2C1 (stereo not given)
Marked response: met

Exam item: Repeat for the following compound: O=C1CSC(c2cccc(Oc3ccccc3)c2)N1c1cc(Cl)ccc1Cl (stereo not given)
Marked response: not met

====

Tested on: PC-3 prostate
Test: NCI tumour cell line growth inhibition, 48 h
measure.name: TGI

Exam item: Field request: TGI | item: Cc1nnc(N)s/c1=N/O
Marked response: > 100 µM

Exam item: Repeat for the following molecule: C(/Cc1ccc2c(c1)OCO2)=N\NC1=NCCCCN1
Marked response: > 100 µM

Exam item: Repeat for the following molecule: N/N=C(\N)SCc1ccc(N=C=S)cc1
Marked response: > 100 µM

Exam item: Repeat for the following molecule: COc1cc(CC2C(=O)OCC2Cc2ccc(OC)c(OC)c2)ccc1O (stereo unspecified)
Marked response: > 100 µM

Exam item: Repeat for the following molecule: CC(C)=C[C@@H]1C[C@H](C)[C@H]2CC[C@H](C)[C@H]3C(=O)C(O)=C(C)C(=O)[C@]123
Marked response: > 100 µM

Exam item: Repeat for the following molecule: CC1SCCc2nc3ccccc3n21 (stereo unspecified)
Marked response: > 100 µM

Exam item: Repeat for the following molecule: CCCSC1=N/C(=C\c2ccco2)C(=O)N1
Marked response: > 100 µM

Exam item: Repeat for the following molecule: COc1cc(-c2nn(-c3cccc(NC(=O)c4cccc(C(F)(F)F)c4)c3)cc2-c2ccncc2)ccc1Cl
Marked response: > 50 µM

Exam item: Repeat for the following molecule: CC(=O)OC1C(C)OC(OC2C[C@](O)(C(C)=O)Cc3c(O)c4c(c(O)c32)C(=O)c2ccccc2C4=O)C(F)C1OC(C)=O (stereo partly specified)
Marked response: 22.4 µM

Exam item: Repeat for the following molecule: Nc1nc2c(c(-c3ccc(F)cc3)n1)COC/C2=C\c1ccc(F)cc1
Marked response: > 100 µM

Exam item: Repeat for the following molecule: O=C(c1ccccc1)c1ccc(N2C(=O)C3C4c5ccccc5C(/C=C/C(=O)c5ccccn5)(c5ccccc54)C3C2=O)cc1 (stereo unspecified)
Marked response: > 100 µM

====

Test system: SNB-75 CNS
Experiment: NCI tumour cell line growth inhibition, 48 h
measure.name: TGI (µM)
Number only, in µM; omit the unit.

Exam item: Field request: TGI | item: O=c1cccccc1[O-].O=c1cccccc1[O-].O=c1cccccc1[O-].[Dy+3]
Marked response: 52.1

Exam item: Repeat for the following compound: Nc1nc2c(c(-c3ccc(F)cc3)n1)COC/C2=C\c1ccc(F)cc1
Marked response: 83.1

Exam item: Repeat for the following compound: CCN(CCCl)c1ccc(NC(=O)c2cc(C(=O)NCCN(C)C)cc(C(=O)Nc3ccc(N(CC)CCCl)cc3)c2)cc1
Marked response: 69.6

Exam item: Repeat for the following compound: COc1cc(/C=C/C(=O)c2c(-c3ccc(Cl)cc3)nc3sc(C)nn23)cc(OC)c1OC
Marked response: 33.7

Exam item: Repeat for the following compound: CCOC(=O)c1sc2nc(SC)nc3c2c1NCN3c1ccccc1Cl
Marked response: 64.9

Exam item: Repeat for the following compound: COc1ccc(N=C(SSC(=Nc2ccc(OC)cc2)c2ccc([N+](=O)[O-])o2)c2ccc([N+](=O)[O-])o2)cc1
Marked response: 2.9

Exam item: Repeat for the following compound: COc1ccc2c3c(c4cc(OC)c(OC)cc4c2c1)C[C@H]1CCCCN1C3
Marked response: 0.000103

Exam item: Repeat for the following compound: Oc1[nH]c2ccccc2c1N=Nc1nc(-c2ccccc2)cs1
Marked response: 41.3

Exam item: Repeat for the following compound: CCCCCCCCCCCC1=C(O)C(=O)C=C(O)C1=O
Marked response: 17.7

Exam item: Repeat for the following compound: Cc1ccc(C(=O)C2CC3(CCC2(O)c2ccc(C)cc2)CC(=O)Nc2ccccc2C3=O)cc1 (stereo not given)
Marked response: 93.5

====

Exercise: for every item that follows, state its recorded TGI.
System: DMS 114 small cell lung
Test: NCI tumour cell line growth inhibition, 48 h

Exam item: Field request: TGI | item: CCOC(=O)NC/C=C/CO
Marked response: > 100 µM

Exam item: Repeat for the following compound: Cc1ccc(C)c(C(=O)CC2OC(O)C(Cl)C2Cl)c1 (configuration not stated)
Marked response: > 100 µM

Exam item: Repeat for the following compound: NS(=O)(=O)C1CCCCC1C(=O)NNC(=O)C(=O)Nc1nc(=S)[nH][nH]1 (configuration not stated)
Marked response: > 100 µM

Exam item: Repeat for the following compound: CC1=CC(=O)N2[C@H](OC[C@@H]2C(C)C)O1
Marked response: > 100 µM

Exam item: Repeat for the following compound: COC(=O)C1=C(C)N(NC(=O)Nc2ccccc2)C2(N)N(NC(=O)Nc3ccccc3)C(C)=C(C(=O)OC)C12C(=O)OC (configuration not stated)
Marked response: > 100 µM

Exam item: Repeat for the following compound: CN(C)c1ccc(/C=C2\Cc3ccccc3C2=O)cc1Br
Marked response: > 100 µM

Exam item: Repeat for the following compound: CCOC(=O)C1=C(O)c2c(OC)ccc(OC)c2C(=O)C1=O
Marked response: > 100 µM

Exam item: Repeat for the following compound: CCNC(=O)O/N=C1/C=C2CC[C@@H]3C(CC[C@@]4(C)C3CC[C@@H]4OC(=O)NCC)[C@@]2(C)CC1 (some centres not stated)
Marked response: 3.29 µM

Exam item: Repeat for the following compound: CCOC(=O)/C(=C/c1ccc[nH]1)P(=O)(OCC)OCC
Marked response: > 100 µM

Exam item: Repeat for the following compound: Nc1ccc2ncc(Nc3ccc(Cl)c(Cl)c3)nc2c1
Marked response: 42.1 µM

Exam item: Repeat for the following compound: CC(=O)OCC1OC(OC(C)=O)C(NC#N)C(OC(C)=O)C1OC(C)=O (configuration not stated)
Marked response: > 100 µM

Exam item: Repeat for the following compound: Nc1nc(N)c(-c2ccccc2)c(C(=O)Nc2nccs2)n1
Marked response: > 100 µM

Exam item: Repeat for the following compound: O=C(O)C12C3C4C1C1C2C3C41I (configuration not stated)
Marked response: > 100 µM

Exam item: Repeat for the following compound: Cn1ncc2c(c1=O)Nc1ccccc1S2(=O)=O
Marked response: 40.9 µM

Exam item: Repeat for the following compound: COC(=O)C1=C(C)C(=O)C2(CCCCCC2C(=O)OC)C1 (configuration not stated)
Marked response: > 100 µM

Exam item: Repeat for the following compound: COC(=O)/C(=C/c1ccc(OC)cc1)c1cc(OC)c(OC)c(OC)c1
Marked response: > 23.3 µM

Exam item: Repeat for the following compound: NC(=O)NC(=O)C1CCC(=O)N1S(=O)(=O)c1ccc(Cl)cc1 (configuration not stated)
Marked response: > 100 µM
